Assay: Ki value determined against Sigma opioid receptor type 2 using [3H]DTG(5 nM) with 1uM dextrallorphan to mask sigma1 binding
For each of the molecules below, state its Ki.

// worked examples, Ki included
molecule="C#CCCN1CC[C@]2(C)c3cc(O)ccc3CC1C2C (some centres not stated)" assay_readout=Ki result="15 µM"
molecule="C#CCCCN1CC[C@]2(C)c3cc(O)ccc3CC1C2C (some centres not stated)" assay_readout=Ki result="3.5 µM"
molecule="CC1C2Cc3ccc(O)cc3[C@@]1(C)CCN2CCCCC#N (some centres not stated)" assay_readout=Ki result="13 µM"
molecule="CC1C2Cc3ccc(O)cc3[C@@]1(C)CCN2CC#N (some centres not stated)" assay_readout=Ki result="93 µM"
molecule="CC1C2Cc3ccc(O)cc3[C@@]1(C)CCN2CCCCCCC#N (some centres not stated)" assay_readout=Ki result="1.9 µM"

# map each molecule to its Ki
1. C=CCCCN1CC[C@]2(C)c3cc(O)ccc3CC1C2C (some centres not stated)
2. C=CCN1CC[C@]2(C)c3cc(O)ccc3CC1C2C (some centres not stated)
3. C=CCCCCN1CC[C@]2(C)c3cc(O)ccc3CC1C2C (some centres not stated)
4. CC1C2Cc3ccc(O)cc3[C@@]1(C)CCN2CCC#N (some centres not stated)
5. C=CCCN1CC[C@]2(C)c3cc(O)ccc3CC1C2C (some centres not stated)

OUT:
2.5 µM
27 µM
0.76 µM
> 100 µM
7.6 µM

# map each molecule to its Ki
1. CC1C2Cc3ccc(O)cc3[C@@]1(C)CCN2CCCC#N (some centres not stated)
2. CC1C2Cc3ccc(O)cc3[C@@]1(C)CCN2CCCCCC#N (some centres not stated)

OUT:
34 µM
5.7 µM
